test.name: Half life in rat at 0.5 mg/kg, iv and 2 mg/kg, po by LC-MS/MS analysis
Type: ADME, organism-based
assay.setup: in vivo
Listed here: items and their measured half-life.
readout.type: half-life (h)

>>> recorded_value("COc1ccc2c(-n3c(=O)n(Cc4cc(O[C@H](C)C(=O)O)ccc4Cl)c4ccccc43)noc2c1")
6.9
>>> recorded_value("C[C@]1(c2cccc(Cn3c(=O)n(-c4noc5cc(Cl)ccc45)c4ccccc43)c2)OC(O)=NC1=O")
3
>>> recorded_value("COc1ccc2c(-n3c(=O)n(Cc4cc([C@@]5(C)OC(=O)NC5=O)ccc4Cl)c4ccccc43)noc2c1")
3.8
>>> recorded_value("COc1ccc2c(-n3c(=O)n(Cc4ccc(Cl)c(O[C@H](C)C(=O)O)c4)c4ccccc43)noc2c1")
5
>>> recorded_value("COc1ccc2c(-n3c(=O)n(Cc4cccc([C@@]5(C)OC(=O)NC5=O)c4)c4ccccc43)noc2c1")
4.2
